- target under test: Thromboxane Synthase
- experiment description: Thromboxane synthase inhibition (Table III, enzyme source not stated)
- Format: biochemical
- experimental parameters: platelet species not stated, read-out: Thromboxane Synthase Inh. IC50
Reported IC50 values are given for each entry in this list.

# compound, target under test, IC50
rows = [
    ("Cc1cccc(C)c1N(CCCc1cccnc1)C(=O)Cn1ccnc1C", "Thromboxane Synthase", "0.1 to 1 µM"),
    ("Cc1cccc(C)c1N(CCCCn1ccnc1)C(=O)C(C)N (stereo not drawn)", "Thromboxane Synthase", "~10 µM"),
    ("Cc1cccc(C)c1N(CCCCc1cccnc1)C(=O)C(C)N (stereo not drawn)", "Thromboxane Synthase", "10 to 100 µM"),
    ("Cc1cccc(C)c1N(CCCCCCc1cccnc1)C(=O)C(C)N (stereo not drawn)", "Thromboxane Synthase", "10 to 100 µM"),
    ("Cc1cccc(C)c1N(CCCc1cccnc1)C(=O)Cn1ccnc1", "Thromboxane Synthase", "0.1 to 1 µM"),
    ("Cc1ccc(N(CCCc2cccnc2)C(=O)C(C)N)cc1 (racemic)", "Thromboxane Synthase", "10 to 100 µM"),
    ("Cc1cccc(C)c1N(CCn1ccnc1)C(=O)CCCc1cccnc1", "Thromboxane Synthase", "0.1 to 1 µM"),
    ("Cc1cccc(C)c1N(CCCc1cccnc1)C(=O)C(C)N.Cl.Cl (racemic) [dihydrochloride]", "Thromboxane Synthase", "10 to 100 µM"),
    ("CC(N)C(=O)N(CCCc1cccnc1)c1ccccc1 (racemic)", "Thromboxane Synthase", "10 to 100 µM"),
]

----------
A collection of molecules and their measured pIC50
- Tested on: Platelet Activating Factor (PAF) induced aggregation of human platelet rich plasma
- experiment description: Inhibition of platelet activating factor (PAF) induced platelet aggregation
- Format: cell-based
- experimental parameters: human PRP, PAF 1 μM, first phase response
pIC50: −log10 of the molar value.
endpoint label: pIC50

# molecule, endpoint label, qual, observed value
data = [
    ("Cc1cccc(C)c1N(CCCc1cccnc1)C(=O)Cn1ccnc1C", "pIC50", "<", 5.00),
    ("Cc1cccc(C)c1N(CCCCn1ccnc1)C(=O)C(C)N (stereo not shown)", "pIC50", "<", 5.00),
    ("Cc1cccc(C)c1N(CCCc1cccnc1)C(=O)C(C)N.Cl.Cl (racemic) [dihydrochloride]", "pIC50", "=", 4.70),
    ("Cc1cccc(C)c1N(CCCCc1cccnc1)C(=O)C(C)N (stereo not shown)", "pIC50", "<", 5.00),
    ("Cc1cccc(C)c1N(CCCc1cccnc1)C(=O)Cn1ccnc1", "pIC50", "=", 6.00),
    ("Cc1cccc(C)c1N(CCn1ccnc1)C(=O)CCCc1cccnc1", "pIC50", "=", 6.30),
    ("Cc1cccc(C)c1NC(=O)C(C)N (stereo not shown) [reference compound]", "pIC50", "<", 4.00),
]

----------
- target under test: thromboxane A2 synthetase (Oryctolagus cuniculus, UniProt G1TAZ9)
- Sequence (G1TAZ9 1-530): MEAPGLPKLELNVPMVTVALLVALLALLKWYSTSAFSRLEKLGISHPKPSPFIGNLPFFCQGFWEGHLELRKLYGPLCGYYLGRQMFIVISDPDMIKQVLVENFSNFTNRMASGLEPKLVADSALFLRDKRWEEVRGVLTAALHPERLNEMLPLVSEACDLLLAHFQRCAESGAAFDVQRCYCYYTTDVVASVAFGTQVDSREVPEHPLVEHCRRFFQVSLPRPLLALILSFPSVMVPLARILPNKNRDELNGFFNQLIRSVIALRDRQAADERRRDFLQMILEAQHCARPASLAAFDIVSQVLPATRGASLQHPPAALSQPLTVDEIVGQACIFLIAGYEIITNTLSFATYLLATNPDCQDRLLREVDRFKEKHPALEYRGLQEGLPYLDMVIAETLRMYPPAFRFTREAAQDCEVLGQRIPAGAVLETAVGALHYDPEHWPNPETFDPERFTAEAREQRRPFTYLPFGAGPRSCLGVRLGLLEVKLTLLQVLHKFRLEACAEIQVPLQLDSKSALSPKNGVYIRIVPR
endpoint label: IC50 (µM)

# molecule, target under test, observed value
records = [
    ("Cc1cccc(C)c1N(CCCc1cccnc1)C(=O)C(C)N.Cl.Cl (racemic) [dihydrochloride]", "thromboxane A2 synthetase (Oryctolagus cuniculus, UniProt G1TAZ9)", 38),
]

----------
- System: Ouabain-induced ventricular arrhythmia
- experiment description: Effectiveness against ouabain-induced ventricular arrhythmia in anesthetized dogs
- Format: in vivo, dog
- experimental parameters: Canis lupus familiaris, iv, dog; read-out: Ouabain Induced Arrhythmias MED, Table III
Catalogue of minimal effective dose values
endpoint label: minimal effective dose

# compound, observed value
data = [
    ("CC(N)C(=O)N(CCCc1cccnc1)c1ccccc1 (racemic) [H H H]", "> 10 mg/kg"),
    ("Cc1cccc(C)c1N(CCCc1cccnc1)C(=O)C(C)N.Cl.Cl (racemic)", "4.4 mg/kg"),
    ("Cc1cccc(C)c1N(CCCc1cccnc1)C(=O)Cn1ccnc1C", "> 10 mg/kg"),
    ("Cc1ccc(N(CCCc2cccnc2)C(=O)C(C)N)cc1 (racemic) [H H CH3]", "> 10 mg/kg"),
    ("Cc1cccc(C)c1NC(=O)C(C)N (stereo not shown) [reference compound]", "15.5 mg/kg"),
    ("Cc1cccc(C)c1N(CCCCn1ccnc1)C(=O)C(C)N (stereo not shown)", "> 10 mg/kg"),
    ("Cc1cccc(C)c1N(CCCCCCc1cccnc1)C(=O)C(C)N (stereo not shown)", "8.3 mg/kg"),
]

The measurements presented in this section are drawn from patent US4696930A.
